Sourced from patent US9023354B2

system: A549 cells; assay: DNA fragmentation (Cell Death Detection ELISA), measurement of apoptosis; settings: Homo sapiens, A549, read-out: % Inc. over Background, DNA fragmentation
# activation at 10 µM per record follows

[
  {
    "COMPOUND": "Oc1c(C(Nc2cc(Cl)c(Cl)cn2)c2ccc(Cl)cc2Cl)ccc2cccnc12 (stereo not drawn)",
    "MEASUREMENT_TARGET": "A549 cells",
    "activation at 10 µM / %": 581
  },
  {
    "COMPOUND": "Oc1c(C(Nc2cc(Cl)c(Cl)cn2)c2cccc(Cl)c2Cl)ccc2cccnc12 (stereo not drawn)",
    "MEASUREMENT_TARGET": "A549 cells",
    "activation at 10 µM / %": 782
  },
  {
    "COMPOUND": "Cc1cc(Cl)cnc1NC(c1ccccc1Cl)c1ccc2cccnc2c1O (stereo not drawn)",
    "MEASUREMENT_TARGET": "A549 cells",
    "activation at 10 µM / %": 469
  }
]

----------
tested on: A549 cells; assay: DNA fragmentation (Cell Death Detection ELISA), measurement of apoptosis; conditions: Homo sapiens, A549, read-out: % Inc. over Background, DNA fragmentation

[
  {
    "MOLECULE": "Cc1cc(Cl)cnc1NC(c1ccccc1Cl)c1ccc2cccnc2c1O (stereo not drawn)",
    "MEASUREMENT_TARGET": "A549 cells",
    "UNIT": "%",
    "activation at 1 µM": 573
  },
  {
    "MOLECULE": "Cc1cc(NC(c2ccc(Cl)cc2Cl)c2ccc3cccnc3c2O)ncc1Cl (stereo not drawn)",
    "MEASUREMENT_TARGET": "A549 cells",
    "UNIT": "%",
    "activation at 1 µM": 366
  },
  {
    "MOLECULE": "Cc1cc(Cl)cnc1NC(c1cccc(Cl)c1Cl)c1ccc2cccnc2c1O (stereo not drawn)",
    "MEASUREMENT_TARGET": "A549 cells",
    "UNIT": "%",
    "activation at 1 µM": 406
  },
  {
    "MOLECULE": "Cc1cc(Cl)cnc1NC(c1ccc(Cl)c(F)c1)c1ccc2cccnc2c1O (stereo not drawn)",
    "MEASUREMENT_TARGET": "A549 cells",
    "UNIT": "%",
    "activation at 1 µM": 531
  },
  {
    "MOLECULE": "Oc1c(C(Nc2cc(Cl)c(Cl)cn2)c2ccc(F)cc2Cl)ccc2cccnc12 (stereo not drawn)",
    "MEASUREMENT_TARGET": "A549 cells",
    "UNIT": "%",
    "activation at 1 µM": 285
  },
  {
    "MOLECULE": "Oc1c(C(Nc2cc(Cl)c(Cl)cn2)c2ccc(Cl)cc2Cl)ccc2cccnc12 (stereo not drawn)",
    "MEASUREMENT_TARGET": "A549 cells",
    "UNIT": "%",
    "activation at 1 µM": 395
  }
]
